All values here come from ChEMBL document CHEMBL1142604.

testDetails: Elimination half life in human at 500 mg, po
Format: ADME, organism-based
measurementContext: in vivo, read-out: beta t1/2 (converted)
measurementType: half-life (h)

> print(dat)
                                   molecule  unit  endpointresult
1  Cc1ccc([C@H](C)C(=O)O)cc2c(C)ccc1-2 [CHAMAZULENE CARBOXYLIC ACID]     h               4
